From: patent US9926281B2

Parameter 'readout' = IC50; parameter 'system' = UniProtKB P50281.

compound="CC(CC1(CCNC(=O)OC(C)(C)C)NC(=O)NC1=O)C(=O)N1CCN(c2ccc(F)c(F)c2)CC1 (stereo not drawn) [compound 235]" value_measured="26 nM"
compound="C[C@@H](C[C@@]1(C)NC(=O)NC1=O)C(=O)N1CCN(c2cc(F)cc(-c3cn[nH]c3)c2)[C@@H](C)C1 [compound 375]" value_measured="> 20000 nM"
compound="CC(CC1(C2CNC2)NC(=O)NC1=O)C(=O)N1CCN(c2ccc(F)c(F)c2)[C@@H](C)C1 (stereo partly drawn) [compound 247]" value_measured="> 4000 nM"
compound="C[C@H]1CN(C(=O)CC[C@@]2(C3CC3)NC(=O)NC2=O)CCN1c1ccc(F)c(F)c1 [compound 205]" value_measured="> 4000 nM"
compound="CC(CC1(C)NC(=O)NC1=O)C(=O)N1CCN(c2ccc(F)cc2)[C@@H](C)C1 (stereo partly drawn) [compound 365]" value_measured="> 20000 nM"
compound="COCC1(CC(C)C(=O)N2CCN(c3ccc(F)c(F)c3)[C@@H](C)C2)NC(=O)NC1=O (stereo partly drawn) [compound 226]" value_measured="978 nM"

Please examine the following record next.
# lookup: UniProtKB P50281 IC50, key = C[C@H]1CN(C(=O)CCC2(c3cncnc3)NC(=O)NC2=O)CCN1c1cc(F)cc(F)c1 (stereo partly drawn) [compound 332]
378 nM
